- target_desc: apVTR1 (Aplysia californica, UniProt A0ABM1ABB6)
- Sequence (A0ABM1ABB6 1-470): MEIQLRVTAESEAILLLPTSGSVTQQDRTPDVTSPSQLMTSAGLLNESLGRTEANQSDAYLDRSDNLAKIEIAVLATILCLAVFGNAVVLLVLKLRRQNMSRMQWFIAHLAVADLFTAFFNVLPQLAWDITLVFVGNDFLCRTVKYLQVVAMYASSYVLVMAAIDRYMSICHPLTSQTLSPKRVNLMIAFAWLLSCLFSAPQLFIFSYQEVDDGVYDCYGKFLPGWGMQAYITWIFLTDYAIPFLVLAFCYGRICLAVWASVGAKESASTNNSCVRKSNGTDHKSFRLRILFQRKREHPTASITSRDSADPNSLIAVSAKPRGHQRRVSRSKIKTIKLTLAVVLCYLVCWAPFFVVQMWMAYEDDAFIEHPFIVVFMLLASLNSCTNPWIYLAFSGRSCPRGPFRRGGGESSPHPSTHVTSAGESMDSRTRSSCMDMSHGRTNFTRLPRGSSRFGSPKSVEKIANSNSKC
- protocol_text: cell-based
- Type: cell-based
- assay_context: apVTR1 log[EC50]
Bridge positions count the residues as written; N and C are the ends. Peptide text beside a SMILES is read from it. * marks the point of attachment. Acm = CC(=O)NC*
experimental_readout: pEC50
Answer as the number alone; pEC50 is minus log10 of concentration in mol/L.

Look over these answered cases.
compound	pEC50
CC[C@H](C)[C@H](NC(=O)[C@H](Cc1ccccc1)NC(=O)[C@@H](N)CSCNC(C)=O)C(=O)N[C@@H](CCCNC(=N)N)C(=O)N[C@@H](CC(N)=O)C(=O)N[C@@H](CS)C(=O)N1CCC[C@H]1C(=O)N[C@@H](CCCCN)C(=O)NCC(N)=O [[Cys(Acm)^1]apVT] (H-C(Acm)FIRNCPKG-NH2; N-terminus assumed)	5.50
CC[C@H](C)[C@@H]1NC(=O)[C@H](Cc2ccccc2)NC(=O)[C@@H](N)CSSC[C@@H](C(=O)N2CCC[C@H]2C(=O)N[C@@H](C)C(=O)NCC(N)=O)NC(=O)[C@H](CC(N)=O)NC(=O)[C@H](CCCNC(=N)N)NC1=O [[Ala^8]apVT] (H-CFIRNCPAG-NH2; disulfide 1-6)	5.80
CC[C@H](C)[C@@H]1NC(=O)[C@H](Cc2ccc(O)cc2)NC(=O)[C@@H](N)CSSC[C@@H](C(=O)N2CCC[C@H]2C(=O)N[C@@H](CC(C)C)C(=O)NCC(N)=O)NC(=O)[C@H](CC(N)=O)NC(=O)[C@H](CCC(N)=O)NC1=O [Oxytocin, reference compound]	4.80
CC(C)[C@@H]1NC(=O)[C@H](Cc2ccccc2)NC(=O)[C@@H](N)CSSC[C@@H](C(=O)N2CCC[C@H]2C(=O)N[C@H](C(=O)NCC(N)=O)[C@@H](C)O)NC(=O)[C@H](CC(N)=O)NC(=O)[C@H](CCCNC(=N)N)NC1=O [Annetocin, reference compound] (H-CFVRNCPTG-NH2; disulfide 1-6)	5.20
CC[C@H](C)[C@@H]1NC(=O)[C@H](Cc2ccccc2)NC(=O)[C@@H](N)CSSC[C@@H](C(=O)N[C@@H](C)C(=O)N[C@@H](CCCCN)C(=O)NCC(N)=O)NC(=O)[C@H](CC(N)=O)NC(=O)[C@H](CCCNC(=N)N)NC1=O [[Ala^7]apVT] (H-CFIRNCAKG-NH2; disulfide 1-6)	6.00
C[C@@H]1NC(=O)[C@H](Cc2ccccc2)NC(=O)[C@@H](N)CSSC[C@@H](C(=O)N2CCC[C@H]2C(=O)N[C@@H](CCCCN)C(=O)NCC(N)=O)NC(=O)[C@H](CC(N)=O)NC(=O)[C@H](CCCNC(=N)N)NC1=O [[Ala^3]apVT] (H-CFARNCPKG-NH2; disulfide 1-6)	4.50
CC[C@H](C)[C@@H]1NC(=O)[C@H](Cc2ccccc2)NC(=O)[C@@H](N)CSSC[C@@H](C(=O)N2CCC[C@H]2C(=O)N[C@@H](CCCCN)C(=O)NCC(N)=O)NC(=O)[C@H](C)NC(=O)[C@H](CCCNC(=N)N)NC1=O [[Ala^5]apVT] (H-CFIRACPKG-NH2; disulfide 1-6)	5.20
CC[C@H](C)[C@H](NC(=O)[C@H](Cc1ccccc1)NC(=O)[C@@H](N)CSCNC(C)=O)C(=O)N[C@@H](CCCNC(=N)N)C(=O)N[C@@H](CC(N)=O)C(=O)N[C@@H](CSCNC(C)=O)C(=O)N1CCC[C@H]1C(=O)N[C@@H](CCCCN)C(=O)NCC(N)=O [[Cys(Acm)^1,6]apVT] (H-C(Acm)FIRNC(Acm)PKG-NH2; N-terminus and C-terminus assumed)	4.90
CC[C@H](C)[C@H](NC(=O)[C@H](Cc1ccccc1)NC(=O)[C@@H](N)CS)C(=O)N[C@@H](CCCNC(=N)N)C(=O)N[C@@H](CC(N)=O)C(=O)N[C@@H](CS)C(=O)N1CCC[C@H]1C(=O)N[C@@H](CCCCN)C(=O)NCC(=O)O [apVT'-OH] (H-CFIRNCPKG-OH; N-terminus assumed)	5.70
CC[C@H](C)[C@@H]1NC(=O)[C@H](Cc2ccccc2)NC(=O)[C@@H](N)CSSC[C@@H](C(=O)N2CCC[C@H]2C(=O)N[C@@H](CCCCN)C(=O)NCC(=O)O)NC(=O)[C@H](CC(N)=O)NC(=O)[C@H](CCCNC(=N)N)NC1=O [apVT-OH] (H-CFIRNCPKG-OH; disulfide 1-6; N-terminus assumed)	5.50

So, CC[C@H](C)[C@H](NC(=O)[C@H](Cc1ccccc1)NC(=O)[C@@H](N)CS)C(=O)N[C@@H](CCCNC(=N)N)C(=O)N[C@@H](CC(N)=O)C(=O)N[C@@H](CSCNC(C)=O)C(=O)N1CCC[C@H]1C(=O)N[C@@H](CCCCN)C(=O)NCC(N)=O [[Cys(Acm)^6]apVT] (H-CFIRNC(Acm)PKG-NH2; N-terminus assumed) ? Its pEC50 was 5.80

For record CC[C@H](C)[C@@H]1NC(=O)[C@H](Cc2ccccc2)NC(=O)[C@@H](N)CSSC[C@@H](C(=O)N2CCC[C@H]2C(=O)N[C@@H](CCCCN)C(=O)N[C@@H](C)C(N)=O)NC(=O)[C@H](CC(N)=O)NC(=O)[C@H](CCCNC(=N)N)NC1=O [[Ala^9]apVT] (H-CFIRNCPKA-NH2; disulfide 1-6) the listed pEC50 is 6.00

These measurements were taken from paper PMC10067623.
